The measured values listed here are drawn from paper PMC11458808.

- protocol notes: ChromLogD pH7.4 (chromatographic hydrophobicity index)
- Assay type: physicochemical
- conditions: pH 7.4; CHIpH7.4 × 0.0857–2; read-out: ChromlogDpH7.4
Below: a set of entries, each annotated with reported chromatographic logD.
// return just the number, without any unit appended

Known results for molecules:
COc1ccc(S(=O)(=O)Nc2ccc(CN3CCN(C(=O)c4cc(C(F)(F)F)n[nH]4)CC3)cc2)cc1 [Compound 17] ... 4.9
COc1ccc(S(=O)(=O)Nc2ccc(CN3CCN(C(=O)c4ccc(OC)c(Cl)c4)CC3)cc2)cc1 [Compound 13] ... 5.1
COc1ccc(S(=O)(=O)Nc2ncc(CN3CCN(C(=O)c4cccc(Cl)c4)CC3)nc2OC)cc1 [Compound 46] ... 4
Cc1ccc(S(=O)(=O)Nc2ccc(CN[C@H]3CCN(C(=O)c4cccc(Cl)c4)C3)cc2)cc1 [Compound 31] ... 4.9
O=C(c1cccc(Cl)c1)N1CCN(Cc2ccc(N3CCCCS3(=O)=O)cc2)CC1 [Compound 8] ... 5.1

What value of chromatographic logD has been reported for the following molecule? COc1ccc(S(=O)(=O)Nc2ccc(CN3CCN(C(=O)c4cccc(C)c4)CC3)cc2)cc1 [Compound 12]
5.1

And CN1CCN(S(=O)(=O)Nc2ccc(CN3CCN(C(=O)c4cccc(Cl)c4)CC3)cc2)CC1 [Compound 9] ?
4.1

And CS(=O)(=O)Nc1ccc(CN2CCN(C(=O)c3cccc(Cl)c3)CC2)cc1 [Compound 2] ?
4

And Cc1ccc(S(=O)(=O)Nc2ccc(CN[C@@H]3CCN(C(=O)c4cccc(Cl)c4)C3)cc2)cc1 [Compound 32] ?
4.9

* * *

- protocol notes: Intrinsic clearance in mouse liver microsomes
- Format: in vitro ADME
- conditions: mouse liver microsomal intrinsic clearance
recorded endpoint: Mouse CLi

Known results for compounds:
Cc1ccc(S(=O)(=O)Nc2ccc(CN[C@H]3CCN(C(=O)c4cccc(Cl)c4)C3)cc2)cc1 ... >50 mL/min/g
COc1ccc(S(=O)(=O)Nc2ccc(CN3CCN(C(=O)C4CN(C(C)=O)C4)CC3)cc2)cc1 ... 1.0 mL/min/g

Alright, here's another compound for you.
What value of Mouse CLi has been reported for the following compound? `COc1ccc(S(=O)(=O)Nc2ccc(CN3CCN(C(=O)c4ccccc4)CC3)cc2)cc1`
>50 mL/min/g

* * *

Below: a set of entries, each annotated with reported solubility.
- protocol notes: Aqueous (kinetic) solubility by CAD
- Type: physicochemical
- conditions: kinetic solubility measured by CAD
Please give a number only; it is taken to be in µM.

Known results for molecules:
COc1ccc(S(=O)(=O)Nc2ccc(CN3CC[C@H](NC(=O)c4cccc(Cl)c4)C3)cc2)cc1 ... 51
O=C(c1cccc(Cl)c1)N1CCN(Cc2ccc(NS(=O)(=O)c3ccccc3)cc2)CC1 ... 67

Alright, here's another molecule for you.
What value of solubility has been reported for the following molecule? Cc1ccc(S(=O)(=O)Nc2ccc(CN(C)C3CCN(C(=O)c4cccc(Cl)c4)C3)cc2)cc1 (stereo in doubt)
28
